B1: POU domain, class 2, transcription factor 1, residues 285 to 354; numbered along this chain, P14859 (parent)
chain: LEELEQFAKTFKQRRIKLGFTQGDVGLAMGKLYGNDFSQTTISRFEALNLSFKNMCKLKPLLEKWLNDAE

- Variants of: B1
- ASSAY TEXT: abundance fitness (aPCA) (normalised: wild type 0, dead -1); higher = more abundant; growth selection in yeast, the domain comes from the species named
- RUN CONDITIONS: Homo sapiens
// false strictly below -0.06 in abundance fitness; true otherwise

| VARIANT NAME | ASSIGNED LABEL |
| --- | --- |
| A28L | true |
| F7A | false |
| K17G | true |

API: the following record is the query input.
// query I'd appreciate it if you could say whether `E5Q` has abundance fitness at least equal to -0.06.
// result false
